target: hQC (Homo sapiens, UniProt Q16769); assay: Inhibitor assay for glutaminyl cyclase activity (fluorometric, H-Gln-βNA / H-Gln-AMC); assay type: biochemical; settings: read-out: IC50
Sequence (Q16769 29-361): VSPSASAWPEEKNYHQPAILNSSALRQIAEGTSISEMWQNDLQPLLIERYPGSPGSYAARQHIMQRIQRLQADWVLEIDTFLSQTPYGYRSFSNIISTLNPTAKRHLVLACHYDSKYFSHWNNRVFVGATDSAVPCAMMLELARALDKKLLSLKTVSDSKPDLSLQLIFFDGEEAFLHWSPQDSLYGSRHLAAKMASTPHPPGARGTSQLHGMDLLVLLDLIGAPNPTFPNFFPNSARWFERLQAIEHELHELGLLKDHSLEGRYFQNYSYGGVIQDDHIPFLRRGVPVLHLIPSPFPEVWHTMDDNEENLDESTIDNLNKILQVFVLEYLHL
pIC50: −log10 of the molar value.
MEASURE: pIC50

Consider the reported pIC50 for these compounds:
[[record]]
compound = "COc1ccc(C2C(c3c[nH]c4ccccc34)=C(O)C(=O)N2CCCn2ccnc2)cc1 (stereo not shown) [Compound 121]"
system = "hQC (Homo sapiens, UniProt Q16769)"
measure = "pIC50"
numeric_value = 7.40

[[record]]
compound = "CC(C)(C)C(=O)C1=C(O)C(=O)N(c2ccc3[nH]cnc3c2)C1c1cc[nH]n1 (stereo not shown) [Compound 405]"
system = "hQC (Homo sapiens, UniProt Q16769)"
measure = "pIC50"
numeric_value = 5.66


P: CC(=O)C1=C(O)C(=O)N(c2ccc3[nH]cnc3c2)C1c1cc(Br)c(O)c(Br)c1 (stereo not shown) [Compound 414]
Q: CCCCCC1=C(O)C(=O)N(CCCn2ccnc2)C1c1ccc(OC)cc1 (stereo not shown) [Compound 193]
input: Which has the higher pIC50, P or Q ? # respond with the chosen item's label
output: Q
